system: Magnaporthe grisea (Pyricularia oryzae); test: whole plant or invertebrate; type: in vivo; details: foliar, read-out: disease control
Recorded pest or weed control at 200 ppm, one value per entry.

> print(dat)
                                   compound  assay.value
1  COc1ccnc(C(=O)N[C@@H](C)C(=O)ON(C)C(C)(c2ccc(F)cc2)c2ccc(F)cc2)c1O [I.s.02]        ≥ 80%

Value of measured pest or weed control at 200 ppm for the entry COc1ccnc(C(=O)N[C@@H](C)C(=O)ON(C)C(c2ccccc2)C2CCCC2)c1O (stereo partly drawn) [I.h.01] : ≥ 80%

Consider COc1ccnc(C(=O)N[C@@H](C)C(=O)ON(C)C(C)(c2ccccc2)c2ccc(Cl)cc2)c1O (stereo partly drawn) [I.o.02] . Its measured pest or weed control at 200 ppm is ≥ 80%

Every entry's value here was drawn from patent US11535594B2.
